Assay: Plasma protein binding rate by equilibrium dialysis
Format: in vitro ADME
Details: human plasma, compound 1 µM, equilibrium dialysis 37°C, read-out: free fraction in plasma, Human (%)
Description: Plasma protein binding rate of compounds was detected by equilibrium dialysis (HTDialysis, HTD 96b). The compound was prepared into a […] stock solution with DMSO, and then 25-fold diluted with 0.05 M sodium phosphate buffer as a working solution. […] Plasma protein binding rate and free fraction were calculated using the following formulas: % binding rate = 100 × ([supply-side concentration]5h - [receiver-side concentration]5h)/[supply-side concentration]5h. % free fraction = 100 - % binding rate
reported-metric: fraction unbound at 5 h, 1 µM
Numbers only.

Per the records, this molecule ( Cc1nc(N[C@H](C)c2cccc(S(F)(F)(F)(F)F)c2)c2cn(C3(CF)CC3)c(=O)cc2n1 [Compound of formula I] ) has fraction unbound at 5 h, 1 µM equal to 0.017

---

assay: Dynamic solubility in water, SGF, FaSSIF and FeSSIF; conditions: pH value of the filtrate; FaSSIF, 24 hours
Structures can show the parent of a compound that is named as a salt.
Give pH for every item shown.
Answers are plain numbers.

Here are 4 molecules. What values of pH were reported for them?
1. Cc1nc(N[C@H](C)c2cccc(S(F)(F)(F)(F)F)c2)c2cn(C3(CF)CC3)c(=O)cc2n1 [Crystal form B of citrate salt]
2. Cc1nc(N[C@H](C)c2cccc(S(F)(F)(F)(F)F)c2)c2cn(C3(CF)CC3)c(=O)cc2n1 [Crystal form A of ethanesulfonate salt]
3. Cc1nc(N[C@H](C)c2cccc(S(F)(F)(F)(F)F)c2)c2cn(C3(CF)CC3)c(=O)cc2n1 [Crystal form A of fumarate salt]
4. Cc1nc(N[C@H](C)c2cccc(S(F)(F)(F)(F)F)c2)c2cn(C3(CF)CC3)c(=O)cc2n1 [Crystal form A of methanesulfonate salt]

Result string:
[3.6, 3.7, 4.3, 4.0]

---

Please provide measured pH for the entries that follow.
assay: Dynamic solubility in water, SGF, FaSSIF and FeSSIF; details: pH value of the filtrate; FaSSIF, 1 hour
Counter-ions that a name gives are not always drawn.

Take a look at these entries with their results.
In [3]: df
Out[3]:
                                   compound  measured_result
0  Cc1nc(N[C@H](C)c2cccc(S(F)(F)(F)(F)F)c2)c2cn(C3(CF)CC3)c(=O)cc2n1 [Crystal form A of ethanesulfonate salt]              4.5
1  Cc1nc(N[C@H](C)c2cccc(S(F)(F)(F)(F)F)c2)c2cn(C3(CF)CC3)c(=O)cc2n1 [Crystal form A of methanesulfonate salt]              4.3
2  Cc1nc(N[C@H](C)c2cccc(S(F)(F)(F)(F)F)c2)c2cn(C3(CF)CC3)c(=O)cc2n1 [Crystal form A of fumarate salt]              4.8

The compound Cc1nc(N[C@H](C)c2cccc(S(F)(F)(F)(F)F)c2)c2cn(C3(CF)CC3)c(=O)cc2n1 [Crystal form B of citrate salt] showed pH equal to 4.5

---

Assignment: determine reported S: solubility for the given compounds.
experiment: Dynamic solubility in water, SGF, FaSSIF and FeSSIF; conditions: H2O, 1 hour, 37°C, solid feed concentration 10 mg/mL; 60 min
Counter-ions that a name gives are not always drawn.
Answers are plain numbers, in µg/mL.

Here is how some compounds turned out for S: solubility.
>>> df
                                   compound  unit_symbol  measured_result
0  Cc1nc(N[C@H](C)c2cccc(S(F)(F)(F)(F)F)c2)c2cn(C3(CF)CC3)c(=O)cc2n1 [Crystal form A of fumarate salt]        µg/mL              550
1  Cc1nc(N[C@H](C)c2cccc(S(F)(F)(F)(F)F)c2)c2cn(C3(CF)CC3)c(=O)cc2n1 [Crystal form B of citrate salt]        µg/mL             3610
2  Cc1nc(N[C@H](C)c2cccc(S(F)(F)(F)(F)F)c2)c2cn(C3(CF)CC3)c(=O)cc2n1 [Crystal form A of methanesulfonate salt]        µg/mL            10250

Lab note: next compound to report on.
Briefly, S: solubility measured for Cc1nc(N[C@H](C)c2cccc(S(F)(F)(F)(F)F)c2)c2cn(C3(CF)CC3)c(=O)cc2n1 [Crystal form A of ethanesulfonate salt] : 10060
